- experiment: Biliary excretion in rats
- Assay type: in vivo, rat
- experimentalContext: rat, bile, after an IV dose, read-out: drug found in the bile
parameter: dose excreted (%)

[
  {
    "compound": "C[C@@H](O)CNC(C)(C)CC(=O)N[C@@H]1CCc2ccccc2N(Cc2ccc(-c3ccccc3-c3nnn[nH]3)cc2)C1=O",
    "assayResult": 92
  }
]

====

- experiment: Jejunal absorption of drug solutions from ligated sections of the jejunum of anesthetized rats (bile collection)
- Type: in vivo
- experimentalContext: rat, pH 7.4, solution 2 mg/ml drug, palmitoyl carnitine chloride 5 mg/kg, β-cyclodextrin 0 mg/kg, read-out: % of Dose Absorbed Relative to IV (+/- s.d.)

[
  {
    "compound": "C[C@@H](O)CNC(C)(C)CC(=O)N[C@@H]1CCc2ccccc2N(Cc2ccc(-c3ccccc3-c3nnn[nH]3)cc2)C1=O",
    "Fa at 3.5 h": "11.9%"
  }
]

====

- experiment: Absorption of solid formulations (powders, tablets, beads) from unligated sections of the jejunum of anesthetized rats (bile collection)
- Type: in vivo
- experimentalContext: rat, tablet of lyophilized formulation containing hydroxypropyl-β-cyclodextrin (20 mg/ml in solution), 2 mg/kg drug, 10 mg/kg palmitoyl carnitine chloride, read-out: percentage absorption

[
  {
    "compound": "C[C@@H](O)CNC(C)(C)CC(=O)N[C@@H]1CCc2ccccc2N(Cc2ccc(-c3ccccc3-c3nnn[nH]3)cc2)C1=O",
    "Fa, %": 7.5
  }
]

====

- experiment: Absorption of solid formulations (powders, tablets, beads) from unligated sections of the jejunum of anesthetized rats (bile collection)
- Format: in vivo
- experimentalContext: rat, spheronized beads, drug:β-cyclodextrin:palmitoyl carnitine chloride:microcrystalline cellulose:starch 2:15:10:15:10, read-out: absorption

[
  {
    "compound": "C[C@@H](O)CNC(C)(C)CC(=O)N[C@@H]1CCc2ccccc2N(Cc2ccc(-c3ccccc3-c3nnn[nH]3)cc2)C1=O",
    "Fa (%)": 8.8
  }
]

====

- experiment: Jejunal absorption of drug solutions from ligated sections of the jejunum of anesthetized rats (bile collection)
- Assay type: in vivo
- experimentalContext: rat, pH 7.4, solution 2 mg/ml drug, palmitoyl carnitine chloride 0 mg/kg, β-cyclodextrin 15 mg/kg, read-out: % of Dose Absorbed Relative to IV (+/- s.d.)

[
  {
    "compound": "C[C@@H](O)CNC(C)(C)CC(=O)N[C@@H]1CCc2ccccc2N(Cc2ccc(-c3ccccc3-c3nnn[nH]3)cc2)C1=O",
    "Fa at 3.5 h, %": 12
  }
]

====

- experiment: Absorption of solid formulations (powders, tablets, beads) from unligated sections of the jejunum of anesthetized rats (bile collection)
- Type: in vivo
- experimentalContext: rat, 2 mg/kg, tablet of lyophilized formulation containing β-cyclodextrin (15 mg/ml in solution), 2 mg/kg drug, 10 mg/kg palmitoyl carnitine chloride, read-out: percentage absorption

[
  {
    "compound": "C[C@@H](O)CNC(C)(C)CC(=O)N[C@@H]1CCc2ccccc2N(Cc2ccc(-c3ccccc3-c3nnn[nH]3)cc2)C1=O",
    "endpointUnit": "%",
    "Fa": 28.2
  }
]

====

- experiment: Jejunal absorption of drug solutions from ligated sections of the jejunum of anesthetized rats (bile collection)
- Format: in vivo
- experimentalContext: rat, pH 7.4, solution 2 mg/ml drug, palmitoyl carnitine chloride 10 mg/kg, β-cyclodextrin 7.5 mg/kg, read-out: % of Dose Absorbed Relative to IV (+/- s.d.)
- Description: […]

[
  {
    "compound": "C[C@@H](O)CNC(C)(C)CC(=O)N[C@@H]1CCc2ccccc2N(Cc2ccc(-c3ccccc3-c3nnn[nH]3)cc2)C1=O",
    "Fa at 3.5 h, %": 29.6
  }
]
